Please go through the items and note down their MIC.
System: Staphylococcus aureus 209P
Assay: minimal inhibitory concentration, agar dilution method (in vitro)
Type: cell-based
Dear colleague, please return just the value in µg/mL, with no unit written.

Which measured MIC value corresponds to COc1ccc2ncc(C(=O)NC(C(=O)N[C@@H]3C(=O)N4[C@@H]3SC(C)(C)[C@@H]4C(=O)O)c3ccccc3)c(O)c2n1 (stereo partly shown) ?
0.78

# get_value(readout='MIC', item= Cc1ncc2ncc(C(=O)NC(C(=O)NC3C(=O)N4C3SC(C)(C)C4C(=O)O)c3ccccc3)c(O)c2n1 (stereo not shown) )
0.78

Return reported MIC; argument: COc1nc(O)nc2c(O)c(C(=O)NC(C(=O)NC3C(=O)N4C3SC(C)(C)C4C(=O)O)c3ccccc3)cnc12 (stereo not shown)
1.56

State the recorded MIC for this entry: COc1ccc2ncc(C(=O)NC(C(=O)N[C@@H]3C(=O)N4[C@@H]3SC(C)(C)[C@@H]4C(=O)O)c3ccccc3)c(O)c2c1 (stereo partly shown)
0.39

###

Test system: Staphylococcus aureus 209P
Test: minimal inhibitory concentration, agar dilution method (in vitro)
Assay type: cell-based
Test Readout: MIC (µg/mL)
Record the value in µg/mL, omitting the unit from your answer.

I am curious: what MIC value has been reported for CCOC(=O)Oc1c(C(=O)NC(C(=O)N[C@@H]2C(=O)N3[C@@H]2SC(C)(C)[C@@H]3C(=O)O)c2ccccc2)cnc2cc(OC)ccc12 (stereo partly drawn) [Example 17] ?
0.2

Looking for the measured MIC of CC(=O)Nc1ccc2ncc(C(=O)NC(C(=O)N[C@@H]3C(=O)N4[C@@H]3SC(C)(C)[C@@H]4C(=O)O)c3ccccc3)c(O)c2c1 (stereo partly drawn) [Example 23] , can you help?
0.78

Which MIC value is on record for COc1cc2ncc(C(=O)NC(C(=O)NC3C(=O)N4C3SC(C)(C)C4C(=O)O)c3ccccc3)c(O)c2cn1 (stereo not drawn) [Example 60] ?
1.56

What does the data say about its MIC? Entry: CC1(C)SC2C(NC(=O)C(NC(=O)c3cnc4ccc(N)nc4c3O)c3ccccc3)C(=O)N2C1C(=O)O (stereo not drawn) [Example 40]
0.78

Value lookup for MIC; key = CCNc1ccc2ncc(C(=O)NC(C(=O)NC3C(=O)N4C3SC(C)(C)C4C(=O)O)c3ccccc3)c(O)c2n1 (stereo not drawn) [Example 41]
0.78

Which MIC is listed for Cc1nc(C)c2c(O)c(C(=O)NC(C(=O)NC3C(=O)N4C3SC(C)(C)C4C(=O)O)c3ccccc3)cnc2n1 (stereo not drawn) [Example 48] ?
0.78

Given the molecule CN(C)c1ccc2ncc(C(=O)NC(C(=O)NC3C(=O)N4C3SC(C)(C)C4C(=O)O)c3cccs3)c(O)c2n1 (stereo not drawn) [Example 38] , what is its reported MIC?
0.78

What does the data say about its MIC? Entry: CCCCNc1ccc2ncc(C(=O)NC(C(=O)NC3C(=O)N4C3SC(C)(C)C4C(=O)O)c3ccccc3)c(O)c2n1 (stereo not drawn) [Example 36]
1.56

Quick check: MIC of COc1nc(OC)c2c(O)c(C(=O)NC(C(=O)N[C@@H]3C(=O)N4[C@@H]3SC(C)(C)[C@@H]4C(=O)O)c3ccccc3)cnc2n1 (stereo partly drawn) [Example 26] ?
0.78

Request the reported MIC associated with CC1(C)S[C@@H]2[C@H](NC(=O)C(NC(=O)c3cnc4cccnc4c3O)c3ccccc3)C(=O)N2[C@H]1C(=O)O (stereo partly drawn) [Example 27]
0.78

Given the molecule Cc1ccc2ncc(C(=O)NC(C(=O)NC3C(=O)N4C3SC(C)(C)C4C(=O)O)c3ccccc3)c(O)c2n1 (stereo not drawn) [Example 32] , what is its reported MIC?
0.78

Request the reported MIC associated with COc1c(C(=O)NC(C(=O)N[C@@H]2C(=O)N3[C@@H]2SC(C)(C)[C@@H]3C(=O)O)c2ccccc2)cnc2cc3c(cc12)OCO3 (stereo partly drawn) [Example 10]
0.2

Report MIC for CC1(C)S[C@@H]2C(NC(=O)C(N)c3ccccc3)C(=O)N2[C@H]1C(=O)O (stereo partly drawn) [Ampicillin, reference compound] please.
0.2

Return reported MIC; argument: CCOC(=O)Oc1c(C(=O)NC(C(=O)N[C@@H]2C(=O)N3[C@@H]2SC(C)(C)[C@@H]3C(=O)O)c2ccccc2)cnc2cc(Cl)ccc12 (stereo partly drawn) [Example 16]
0.2

For CC1(C)SC2C(NC(=O)C(NC(=O)c3cnc4cncnc4c3O)c3ccccc3)C(=O)N2C1C(=O)O (stereo not drawn) [Example 50] , what is its reported MIC?
0.78

Which MIC value is on record for CCCCN(CCCC)c1ccc2ncc(C(=O)NC(C(=O)NC3C(=O)N4C3SC(C)(C)C4C(=O)O)c3ccccc3)c(O)c2n1 (stereo not drawn) [Example 42] ?
1.56

// returns reported MIC for input CNc1ccc2ncc(C(=O)NC(C(=O)NC3C(=O)N4C3SC(C)(C)C4C(=O)O)c3ccccc3)c(O)c2n1 (stereo not drawn) [Example 35]
0.78

Fill in: MIC of CCOc1c(C(=O)NC(C(=O)N[C@@H]2C(=O)N3[C@@H]2SC(C)(C)[C@@H]3C(=O)O)c2ccccc2)cnc2ccccc12 (stereo partly drawn) [Example 13] is ___
0.2

FYI, the data here is from patent US3951955A.
